# viability at 28.5 h, 10 µM per entry
- test description: in vitro
- run parameters: human, hela cells, % viability

compound	viability at 28.5 h, 10 µM, %
Cc1nc2c(C)cccc2cc1C(=O)NCCCc1ccccn1	82.8
O=C(O)CCC(=O)Nc1ccc(N2CCN(CCO)CC2)cc1	94.5
O=C1S/C(=C\c2ccc(O)c([N+](=O)[O-])c2)C(=O)N1Cc1ccc(F)cc1	94.9
COCCNc1nc(-c2ccccc2)ccc1C(=O)N(C)CCN(C)C	99.3
CCC1CN(CC(=O)NCc2ccc(OCC(N)=O)cc2)CCO1 (stereo not drawn)	102
O=C(O)c1ccc(-n2ncc3ccccc3c2=O)cc1	111
O=C(NCCn1cncn1)C1(c2ccccc2F)CC1	87
O=c1[nH]nc2c(S(=O)(=O)N3CCCCC3)cccn12	74.9
COc1cc(CNC(=O)NC(=O)C2CCN(CCc3c(-c4ccccc4)[nH]c4ccccc34)CC2)cc(OC)c1OC	91.7
